tested on: Malme-3M; assay: NCI tumour cell line growth inhibition, 48 h
Active and inactive are the calls of the source. Rule as the data show it: active = GI50 up to about 1.1 µM and inactive = higher.
Entries annotated with measured GI50

Known results for molecules:
NC1=Nc2cc(C(F)(F)F)ccc2Sc2nc3ccccc3n21 > 86.1 µM (inactive)
CC(C)(C)c1ccc(C(C)(C)C)c(N2C(=O)[C@@H]3[C@@H]4C=C[C@@H](C4)[C@]3(C)C2=O)c1 21.9 µM (inactive)

I have this molecule here, "CCc1nc2cc3cccnc3c(Cl)c2[nH]c1=O" , and I need its recorded GI50.
> 100 µM (inactive)

I have this molecule here, "O=C1c2ccccc2CC12Cc1cc3c(cc1C2)CCC3" , and I need its recorded GI50.
22.7 µM (inactive)

I have this molecule here, "Cc1nc2c(s/c(=N\N)n2-c2ccccc2)c(=O)[nH]1" , and I need its recorded GI50.
> 100 µM (inactive)
